Below is a list of entries, each paired with its recorded CC50 at 24 h value.
Assay Name: Cytotoxicity against primary peritoneal mouse macrophages assessed as reduction in cell viability measured after 24 hrs by colorimetric assay
Format: toxicity, cell-based, Peritoneal macrophage
All answers are understood in µM, so give the number only.

N#Cc1ccc2nc(NC(=O)c3ccnc(C(F)(F)F)c3)n(CC(F)(F)F)c2c1	4
N#Cc1ccc2nc(NC(=O)c3ccc(C(F)(F)F)nc3)n(CC(F)(F)F)c2c1	8
N#Cc1ccc2nc(NC(=O)c3cc(C(F)(F)F)n[nH]3)n(CC(F)(F)F)c2c1	25

Attention now turns to another entry.
IN: Field request: CC50 at 24 h | item: Cn1nc(C(F)(F)F)cc1C(=O)Nc1nc2ccc(C#N)cc2n1CC(F)(F)F
OUT: 1

----------
Test system: Trypanosoma cruzi
Assay Name: Antitrypanosomal activity against Trypanosoma cruzi Tulahuen CL2 amastigotes expressing beta galactosidase infected in human MRC5 cells assessed as reduction in parasite burden using chlorophenol red beta-D-galactopyranoside as substrate and measured after 7 days by spectrophotometric analysis
Type: functional, organism-based
Experimental Parameters: Tulahuen CL2, MRC5, 168 h
Property Measured: log10 IC50 (log10 of the value in µM)
Values below are the log10 of the recorded IC50, with µM as the unit.

N#Cc1ccc2nc(NC(=O)c3ccnc(C(F)(F)F)c3)n(CC(F)F)c2c1	-0.29

Attention now turns to another entry.
IN: Field request: log10 IC50 | item: Cn1nccc1C(=O)Nc1nc2cccnc2n1CC(C)(C)C
OUT: 0.34

----------
Below is a list of entries, each paired with its recorded selectivity ratio value.
Assay Name: Selectivity index, ratio of CC50 for cytotoxicity against human MRC5 cells to EC50 for Trypanosoma cruzi Tulahuen CL2 amastigotes expressing beta galactosidase infected in human MRC5 cells
Type: toxicity, cell-based
Experimental Parameters: read-out: Selectivity Index
Response field accepts a number only; no unit should be typed.

Answered cases to consult:
CS(=O)(=O)c1ccc2c(c1)nc(NC(=O)c1ccnc(C(F)(F)F)c1)n2CC(F)(F)F	5
Cn1cc(C(=O)Nc2nc3ccc(C#N)cc3n2CC(F)(F)F)cn1	1
Cn1nccc1C(=O)Nc1nc2cc(S(C)(=O)=O)ccc2n1CC(F)(F)F	6
N#Cc1ccc2nc(NC(=O)c3ccnn3C3CC3)n(CC(F)(F)F)c2c1	3
CCCn1c(NC(=O)Cc2ccc(Cl)cc2)nc2cc(C(F)(F)F)ccc21	15

Attention now turns to another entry.
IN: Field request: selectivity ratio | item: O=C(Nc1nc2cncnc2n1CC(F)(F)F)c1ccc(C(F)(F)F)nc1
OUT: 6

----------
Tested on: Trypanosoma cruzi
Assay Name: Antitrypanosomal activity against intracellular Trypanosoma cruzi amastigote infected primary peritoneal mouse macrophages assessed as reduction in amastigote population measured after 96 hrs
Format: functional, organism-based
Experimental Parameters: 96 h
pIC50: −log10 of the molar value.
Outcome: True for pIC50 of at least 7; False for anything lower.

Previously resolved entries follow.
Cn1nc(C(F)(F)F)cc1C(=O)Nc1nc2ccc(C#N)cc2n1CC(F)(F)F	False
O=C(Cn1ccnc1[N+](=O)[O-])NCc1ccccc1 [BENZNIDAZOLE]	False
N#Cc1ccc2nc(NC(=O)c3cc(C(F)(F)F)n[nH]3)n(CC(F)(F)F)c2c1	False
N#Cc1ccc2nc(NC(=O)c3ccc(C(F)(F)F)nc3)n(CC(F)(F)F)c2c1	False

Now let's try a different one.
IN: Reported pIC50 at or above 7? CC[C@@H]([C@H](C)O)n1ncn(-c2ccc(N3CCN(c4ccc(OC[C@@H]5CO[C@@](Cn6cncn6)(c6ccc(F)cc6F)C5)cc4)CC3)cc2)c1=O [POSACONAZOLE]
OUT: True

----------
Tested on: Trypanosoma cruzi
Assay Name: Antitrypanosomal activity against Trypanosoma cruzi Tulahuen CL2 amastigotes expressing beta galactosidase infected in human MRC5 cells assessed as reduction in parasite burden using chlorophenol red beta-D-galactopyranoside as substrate and measured after 7 days by spectrophotometric analysis
Format: functional, organism-based
Experimental Parameters: Tulahuen CL2, MRC5, 168 h
Property Measured: pIC50
Units for pIC50: none; it is -log10 of a concentration expressed in mol/L.

Cn1nccc1C(=O)Nc1nc2cc(CN3CCCC3)ccc2n1CC(F)(F)F	5.09
Cn1nncc1C(=O)Nc1nc2ccc(C#N)cc2n1CC(F)(F)F	4.62
COCCn1c(NC(=O)c2ccc(C(F)(F)F)nc2)nc2ccc(C#N)cc21	4.19
N#Cc1ccc2nc(NC(=O)c3ncc(F)cc3F)n(CC(F)(F)F)c2c1	4.77
O=C(Nc1nc2cncnc2n1CC(F)(F)F)c1ccnc(C(F)(F)F)c1	5.96
Cc1ccc(C(=O)Nc2nc3ccc(C#N)cc3n2CC(F)(F)F)cn1	4.19
Cn1nccc1C(=O)Nc1nc2cc(C(F)(F)F)cnc2n1CC(C)(C)C	6.24
CCCn1c(NC(=O)Cc2ccc(F)cc2)nc2ccc(C(=O)N3CCCC3)cc21	5.07
O=C(Nc1nc2cc(F)ccc2n1C1CCNCC1)c1cccnc1	5.04
CCCn1c(NC(=O)Cc2ccc(F)cc2)nc2cccnc21	5.89

Attention now turns to another entry.
IN: Query pIC50 on Trypanosoma cruzi for CN(C)c1ccc(C(=O)Nc2nc3ccc(C#N)cc3n2CC(F)(F)F)cn1
OUT: 5.07

----------
Assay Name: Passive permeability of the compound at 10 uM at pH 6.5 to 7.4 donor portion/acceptor portion by PAPMA assay
Assay type: ADME
Experimental Parameters: not told, read-out: permeability
Property Measured: Papp at 10 µM (×10⁻⁶ cm/s)
All answers are understood in ×10⁻⁶ cm/s, so give the number only.

Answered cases to consult:
N#Cc1ccc2nc(NC(=O)c3ccnc(C(F)(F)F)c3)n(CC(F)(F)F)c2c1	2.3
N#Cc1ccc2nc(NC(=O)c3ccc(C(F)(F)F)nc3)n(CC(F)(F)F)c2c1	5.4

IN: Field request: Papp at 10 µM | item: Cn1nc(C(F)(F)F)cc1C(=O)Nc1nc2ccc(C#N)cc2n1CC(F)(F)F
OUT: 2.4

IN: Next molecule: N#Cc1ccc2nc(NC(=O)c3cc(C(F)(F)F)n[nH]3)n(CC(F)(F)F)c2c1
OUT: 2

----------
Assay Name: Cytotoxicity against human MRC5 cells assessed as reduction in cell viability measured after 24 hrs by colorimetric assay
Assay type: toxicity, cell-based
Below is a list of entries, each paired with its recorded CC50 at 24 h value.

Answered cases to consult:
N#Cc1ccc2nc(NC(=O)c3ccc(C(F)(F)F)nc3)n(CC(F)(F)F)c2c1	> 64 µM
N#Cc1ccc2nc(NC(=O)c3cc(C(F)(F)F)n[nH]3)n(CC(F)(F)F)c2c1	> 64 µM
Cn1nc(C(F)(F)F)cc1C(=O)Nc1nc2ccc(C#N)cc2n1CC(F)(F)F	8 µM

Attention now turns to another entry.
IN: Field request: CC50 at 24 h | item: N#Cc1ccc2nc(NC(=O)c3ccnc(C(F)(F)F)c3)n(CC(F)(F)F)c2c1
OUT: > 64 µM

----------
Below is a list of entries, each paired with its recorded microsomal CLint value.
Assay Name: Metabolic stability in CD1 mouse liver microsomes assessed as intrinsic clearance measured upto 60 mins by LC-MS/MS analysis
Format: ADME
Experimental Parameters: read-out: CLH

Answered cases to consult:
Cn1nccc1C(=O)Nc1nc2ccc(C#N)cc2n1CC(F)(F)F	20 µL/min/mg
Cn1nccc1C(=O)Nc1nc2cccnc2n1CC(C)(C)C	222 µL/min/mg
O=C(Nc1nc2ccc(F)cc2n1CC(F)(F)F)c1ccc(C(F)(F)F)nc1	86 µL/min/mg
Cn1nc(C(F)(F)F)cc1C(=O)Nc1nc2ccc(C#N)cc2n1CC(F)(F)F	28 µL/min/mg
Cn1nccc1C(=O)Nc1nc2cccnc2n1CC(F)(F)F	119 µL/min/mg

IN: Field request: microsomal CLint | item: CCCn1c(NC(=O)Cc2ccc(F)cc2)nc2ccc(C(=O)N3CCOCC3)cc21
OUT: 23 µL/min/mg

IN: Next molecule: N#Cc1ccc2nc(NC(=O)c3cc(C(F)(F)F)n[nH]3)n(CC(F)(F)F)c2c1
OUT: 25 µL/min/mg

IN: Next molecule: Cc1nn[nH]c1C(=O)Nc1nc2ccc(C#N)cc2n1CC(F)(F)F
OUT: 141 µL/min/mg

IN: Next molecule: CCCn1c(NC(=O)Cc2ccc(F)cc2)nc2cccnc21
OUT: 1500 µL/min/mg

IN: Next molecule: O=C(Nc1nc2cc(F)cnc2n1CC(F)(F)F)c1ccc(C(F)(F)F)nc1
OUT: 113 µL/min/mg

IN: Next molecule: Cn1nccc1C(=O)Nc1nc2cc(CN3CCCC3)ccc2n1CC(F)(F)F
OUT: 23 µL/min/mg

----------
System: Trypanosoma cruzi
Assay Name: Antitrypanosomal activity against intracellular Trypanosoma cruzi amastigote infected mouse 3T3 cells assessed as reduction in amastigote population measured after 48 hrs
Below is a list of entries, each paired with its recorded IC50 value.
All answers are understood in nM, so give the number only.

IN: Field request: IC50 | item: O=C(Cn1ccnc1[N+](=O)[O-])NCc1ccccc1
OUT: 2570

IN: Next molecule: CC[C@@H]([C@H](C)O)n1ncn(-c2ccc(N3CCN(c4ccc(OC[C@@H]5CO[C@@](Cn6cncn6)(c6ccc(F)cc6F)C5)cc4)CC3)cc2)c1=O
OUT: 2

IN: Next molecule: N#Cc1ccc2nc(NC(=O)c3ccnc(C(F)(F)F)c3)n(CC(F)(F)F)c2c1
OUT: 1320

IN: Next molecule: Cn1nc(C(F)(F)F)cc1C(=O)Nc1nc2ccc(C#N)cc2n1CC(F)(F)F
OUT: 990

Data provenance is ChEMBL document CHEMBL5352453.
